Overview of reported fitness across a group of molecules:
Tested on: S. aureus Newman;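 note: OD595 on entry to stationary phase over no-drug wells; at most 1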
Experiment summary: fitness (endpoint OD595 vs no drug) (fraction); higher = more growth
Test parameters: first compound 75 µg/mL; partner 0.125 µg/mL; main component drawn

- Molecule: "CC[C@H](C)[C@H](N)C1=N[C@H](C(=O)N[C@@H](CC(C)C)C(=O)N[C@H](CCC(=O)O)C(=O)N[C@H](C(=O)N[C@H]2CCCCNC(=O)[C@H](CC(N)=O)NC(=O)[C@@H](CC(=O)O)NC(=O)[C@H](Cc3cnc[nH]3)NC(=O)[C@@H](Cc3ccccc3)NC(=O)[C@H]([C@@H](C)CC)NC(=O)[C@@H](CCCN)NC2=O)[C@@H](C)CC)CS1 [Bacitracin] + CCC[C@@H]1C[C@@H](C(=O)N[C@@H]([C@H]2O[C@H](SC)[C@H](O)[C@@H](O)[C@H]2O)[C@H](C)Cl)N(C)C1 [Clindamycin]"
  fitness: 0.0265
- Molecule: "CC[C@H](C)[C@H](N)C1=N[C@H](C(=O)N[C@@H](CC(C)C)C(=O)N[C@H](CCC(=O)O)C(=O)N[C@H](C(=O)N[C@H]2CCCCNC(=O)[C@H](CC(N)=O)NC(=O)[C@@H](CC(=O)O)NC(=O)[C@H](Cc3cnc[nH]3)NC(=O)[C@@H](Cc3ccccc3)NC(=O)[C@H]([C@@H](C)CC)NC(=O)[C@@H](CCCN)NC2=O)[C@@H](C)CC)CS1 [Bacitracin] + CC1=C\\[C@@H](O)CC(=O)Cc2nc(co2)C(=O)N2CCC=C2C(=O)O[C@H](C(C)C)[C@H](C)/C=C/C(=O)NC\\C=C\\1 [Virginiamycin M1]"
  fitness: 0.0313
- Molecule: "CC[C@H](C)[C@H](N)C1=N[C@H](C(=O)N[C@@H](CC(C)C)C(=O)N[C@H](CCC(=O)O)C(=O)N[C@H](C(=O)N[C@H]2CCCCNC(=O)[C@H](CC(N)=O)NC(=O)[C@@H](CC(=O)O)NC(=O)[C@H](Cc3cnc[nH]3)NC(=O)[C@@H](Cc3ccccc3)NC(=O)[C@H]([C@@H](C)CC)NC(=O)[C@@H](CCCN)NC2=O)[C@@H](C)CC)CS1 [Bacitracin] + CO/N=C(\\C(=O)N[C@@H]1C(=O)N2C(C(=O)[O-])=C(C[N+]3(C)CCCC3)CS[C@H]12)c1csc(N)n1 [Cefepime]"
  fitness: 0.0274

###

System: S. aureus DSM 20231;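 note: first quartile when negative (synergy) and third quartile when positive (antagonism)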
Experiment summary: Bliss interaction score (quartile over a dose matrix) (fitness difference); higher = more antagonism (negative = synergy)
Test parameters: main component drawn

- Compound: "CC[C@H](C)[C@H](N)C1=N[C@H](C(=O)N[C@@H](CC(C)C)C(=O)N[C@H](CCC(=O)O)C(=O)N[C@H](C(=O)N[C@H]2CCCCNC(=O)[C@H](CC(N)=O)NC(=O)[C@@H](CC(=O)O)NC(=O)[C@H](Cc3cnc[nH]3)NC(=O)[C@@H](Cc3ccccc3)NC(=O)[C@H]([C@@H](C)CC)NC(=O)[C@@H](CCCN)NC2=O)[C@@H](C)CC)CS1 [Bacitracin] + COc1c(N2C[C@@H]3CCCN[C@@H]3C2)c(F)cc2c(=O)c(C(=O)O)cn(C3CC3)c12 [Moxifloxacin]"
  Bliss interaction score: 0.0317
- Compound: "CC[C@H](C)[C@H](N)C1=N[C@H](C(=O)N[C@@H](CC(C)C)C(=O)N[C@H](CCC(=O)O)C(=O)N[C@H](C(=O)N[C@H]2CCCCNC(=O)[C@H](CC(N)=O)NC(=O)[C@@H](CC(=O)O)NC(=O)[C@H](Cc3cnc[nH]3)NC(=O)[C@@H](Cc3ccccc3)NC(=O)[C@H]([C@@H](C)CC)NC(=O)[C@@H](CCCN)NC2=O)[C@@H](C)CC)CS1 [Bacitracin] + CCC[C@@H]1C[C@@H](C(=O)N[C@@H]([C@H]2O[C@H](SC)[C@H](O)[C@@H](O)[C@H]2O)[C@@H](C)O)N(C)C1 [Lincomycin]"
  Bliss interaction score: -0.046

###

Tested on: S. aureus DSM 20231;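 note: first quartile when negative (synergy) and third quartile when positive (antagonism)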
Experiment summary: Bliss interaction score (quartile over a dose matrix) (fitness difference); higher = more antagonism (negative = synergy)

- Molecule: "CC(=O)NC[C@H]1CN(c2ccc(N3CCOCC3)c(F)c2)C(=O)O1 [Linezolid] + Clc1ccc(COC(Cn2ccnc2)c2ccc(Cl)cc2Cl)c(Cl)c1 [Miconazole]"
  Bliss interaction score: -0.0366
- Molecule: "CO[C@@H]1[C@@H](OC(N)=O)[C@@H](O)[C@H](Oc2ccc3c(O)c(NC(=O)c4ccc(O)c(CC=C(C)C)c4)c(=O)oc3c2C)OC1(C)C [Novobiocin] + CN[C@H](CC(C)C)C(=O)N[C@H]1C(=O)N[C@@H](CC(N)=O)C(=O)N[C@H]2C(=O)N[C@H]3C(=O)N[C@H](C(=O)N[C@H](C(=O)O)c4cc(O)cc(O)c4-c4cc3ccc4O)[C@H](O)c3ccc(c(Cl)c3)Oc3cc2cc(c3O[C@@H]2O[C@H](CO)[C@@H](O)[C@H](O)[C@H]2O[C@H]2C[C@](C)(N)[C@H](O)[C@H](C)O2)Oc2ccc(cc2Cl)[C@H]1O [Vancomycin]"
  Bliss interaction score: -0.0386
- Molecule: "CC(=O)NC[C@H]1CN(c2ccc(N3CCOCC3)c(F)c2)C(=O)O1 [Linezolid] + COc1cc(Cc2cnc(N)nc2N)cc(OC)c1OC [Trimethoprim]"
  Bliss interaction score: 0.129
- Molecule: "CC[C@H]1OC(=O)[C@H](C)[C@@H](O[C@H]2C[C@@](C)(OC)[C@@H](O)[C@H](C)O2)[C@H](C)[C@@H](O[C@@H]2O[C@H](C)C[C@H](N(C)C)[C@H]2O)[C@](C)(O)C[C@@H](C)C(=O)[C@H](C)[C@@H](O)[C@]1(C)O [Erythromycin] + CC1(C)S[C@@H]2[C@H](NC(=O)Cc3ccccc3)C(=O)N2[C@H]1C(=O)O [PenicillinG]"
  Bliss interaction score: 0.0265
- Molecule: "CN[C@@H]1[C@H](O)[C@H](NC)[C@H]2O[C@@]3(O)C(=O)C[C@@H](C)O[C@H]3O[C@@H]2[C@H]1O [Spectinomycin] + CN(N=O)C(=O)N[C@@H](C=O)[C@@H](O)[C@H](O)[C@H](O)CO [Streptozotocin]"
  Bliss interaction score: 0.0831
- Molecule: "CO[C@@]12[C@H](COC(N)=O)C3=C(C(=O)C(C)=C(N)C3=O)N1C[C@@H]1N[C@@H]12 [MitomycinC] + O=C1CN(/N=C/c2ccc([N+](=O)[O-])o2)C(=O)N1 [Nitrofurantoin]"
  Bliss interaction score: -0.0298
- Molecule: "CC[C@H]1OC(=O)[C@H](C)[C@@H](O[C@H]2C[C@@](C)(OC)[C@@H](O)[C@H](C)O2)[C@H](C)[C@@H](O[C@@H]2O[C@H](C)C[C@H](N(C)C)[C@H]2O)[C@](C)(O)C[C@@H](C)C(=O)[C@H](C)[C@@H](O)[C@]1(C)O [Erythromycin] + Cc1onc(-c2ccccc2)c1C(=O)N[C@@H]1C(=O)N2[C@@H]1SC(C)(C)[C@@H]2C(=O)O [Oxacillin]"
  Bliss interaction score: 0.0345
- Molecule: "CC[C@H]1OC(=O)[C@H](C)[C@@H](O[C@H]2C[C@@](C)(OC)[C@@H](O)[C@H](C)O2)[C@H](C)[C@@H](O[C@@H]2O[C@H](C)C[C@H](N(C)C)[C@H]2O)[C@](C)(O)C[C@@H](C)C(=O)[C@H](C)[C@@H](O)[C@]1(C)O [Erythromycin] + Cc1cc(NS(=O)(=O)c2ccc(N)cc2)no1 [Sulfamethoxazol]"
  Bliss interaction score: -0.0354

###

Tested on: S. aureus DSM 20231;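 note: first quartile when negative (synergy) and third quartile when positive (antagonism)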
Experiment summary: Bliss interaction score (quartile over a dose matrix) (fitness difference); higher = more antagonism (negative = synergy)
Observable: Bliss interaction score

- Compound: "CN[C@@H]1[C@H](O[C@H]2[C@H](O[C@H]3[C@H](O)[C@@H](O)[C@H](N=C(N)N)[C@@H](O)[C@@H]3N=C(N)N)O[C@@H](C)[C@]2(O)C=O)O[C@@H](CO)[C@H](O)[C@H]1O [Streptomycin] + CC[C@H]1OC(=O)[C@H](C)C(=O)[C@H](C)[C@@H](O[C@@H]2O[C@H](C)C[C@H](N(C)C)[C@H]2O)[C@](C)(OC)C[C@@H](C)C(=O)[C@H](C)[C@H]2N(CCCCn3cnc(-c4cccnc4)c3)C(=O)O[C@]12C [Telithromycin]"
  Observable: "Bliss interaction score"
  Number: 0.0793
- Compound: "CC[C@H]1OC(=O)[C@H](C)[C@@H](O[C@H]2C[C@@](C)(OC)[C@@H](O)[C@H](C)O2)[C@H](C)[C@@H](O[C@@H]2O[C@H](C)C[C@H](N(C)C)[C@H]2O)[C@](C)(O)C[C@@H](C)C(=O)[C@H](C)[C@@H](O)[C@]1(C)O [Erythromycin] + C[n+]1ccc(-c2cc[n+](C)cc2)cc1 [Paraquat]"
  Observable: "Bliss interaction score"
  Number: 0.0299
